- EXPERIMENT DESCRIPTION: Binding affinity to VEGF (unknown origin) by microscale thermophoresis assay
- Parameters: species or system Homo sapiens
pKd: −log10 of the molar value.
MEASUREMENT LABEL: pKd

INSERT INTO assay_data (input_smiles, numeric_result) VALUES
  ('CCCC[C@@H]1NC(=O)[C@H](C(C)C)NC(=O)[C@H](Cc2c[nH]cn2)NC(=O)[C@H]([C@@H](C)CC)NC(=O)[C@H](CC(=O)O)NC(=O)[C@@H](NC(=O)[C@H](CCCCN)NC(=O)[C@H](CCCCN)NC(=O)C(C)(C)NC(=O)[C@@H](N)CCCCN)CSSC[C@@H](C(=O)N[C@@H](Cc2ccccc2)C(=O)N[C@@H](CCC(=O)O)C(=O)N[C@@H](CCCNC(=N)N)C(=O)N[C@@H](CC(C)C)C(=O)O)NC(=O)[C@H](CCC(=O)O)NC(=O)[C@H](Cc2c[nH]c3ccccc23)NC(=O)[C@H](CCC(=O)O)NC(=O)[C@H](Cc2c[nH]c3ccccc23)NC1=O', 6.27),
  ('CCCC[C@@H]1NC(=O)[C@H](C(C)C)NC(=O)[C@H](Cc2c[nH]cn2)NC(=O)[C@H]([C@@H](C)CC)NC(=O)[C@H](CC(=O)O)NC(=O)[C@@H](NC(=O)[C@H](CC(N)=O)NC(=O)[C@@H]2CCCN2C(=O)C(C)(C)NC(=O)[C@@H](N)C(C)C)CSSC[C@@H](C(=O)N[C@@H](Cc2ccccc2)C(=O)N[C@@H](CCC(=O)O)C(=O)N[C@@H](CCCNC(=N)N)C(=O)N[C@@H](CC(C)C)C(=O)O)NC(=O)[C@H](CCC(=O)O)NC(=O)[C@H](Cc2c[nH]c3ccccc23)NC(=O)[C@H](CCC(=O)O)NC(=O)[C@H](Cc2c[nH]c3ccccc23)NC1=O', 5.53),
  ('CCCC[C@@H]1NC(=O)[C@H](C(C)C)NC(=O)[C@H](Cc2c[nH]cn2)NC(=O)[C@H]([C@@H](C)CC)NC(=O)[C@H](CC(=O)O)NC(=O)[C@@H](NC(=O)[C@H](CC(N)=O)NC(=O)[C@@H](N)C(C)C)CSSC[C@@H](C(=O)N[C@@H](Cc2ccccc2)C(=O)N[C@@H](CCC(=O)O)C(=O)N[C@@H](CCCNC(=N)N)C(=O)N[C@@H](CC(C)C)C(=O)O)NC(=O)[C@H](CCC(=O)O)NC(=O)[C@H](Cc2c[nH]c3ccccc23)NC(=O)[C@H](CCC(=O)O)NC(=O)[C@H](Cc2c[nH]c3ccccc23)NC1=O', 5.71);

----------
Measured Kd accompanies every entry in the list below.
- EXPERIMENT DESCRIPTION: Binding affinity to VEGF (unknown origin) by microscale thermophoresis assay
- Design: species or system Homo sapiens
MEASUREMENT LABEL: Kd (µM)

INSERT INTO measurements (input_smiles, numeric_result) VALUES
  ('CCCC[C@@H]1NC(=O)[C@H](C(C)C)NC(=O)[C@H](Cc2c[nH]cn2)NC(=O)[C@H]([C@@H](C)CC)NC(=O)[C@H](CC(=O)O)NC(=O)[C@@H](N)CSSC[C@@H](C(=O)N[C@@H](Cc2ccccc2)C(=O)N[C@@H](CCC(=O)O)C(=O)N[C@@H](CCCNC(=N)N)C(=O)N[C@@H](CC(C)C)C(=O)O)NC(=O)[C@H](CCC(=O)O)NC(=O)[C@H](Cc2c[nH]c3ccccc23)NC(=O)[C@H](CCC(=O)O)NC(=O)[C@H](Cc2c[nH]c3ccccc23)NC1=O', 9.97),
  ('CCCC[C@@H]1NC(=O)[C@H](C(C)C)NC(=O)C(C)(C)NC(=O)[C@H]([C@@H](C)CC)NC(=O)[C@H](CC(=O)O)NC(=O)[C@@H](NC(=O)[C@H](CC(N)=O)NC(=O)[C@@H]2CCCN2C(=O)[C@H](CCC(=O)O)NC(=O)[C@@H](N)C(C)C)CSSC[C@@H](C(=O)N[C@@H](Cc2ccccc2)C(=O)N[C@@H](CCC(=O)O)C(=O)N[C@@H](CCCNC(=N)N)C(=O)N[C@@H](CC(C)C)C(=O)O)NC(=O)[C@H](CCC(=O)O)NC(=O)[C@H](Cc2c[nH]c3ccccc23)NC(=O)[C@H](CCC(=O)O)NC(=O)[C@H](Cc2c[nH]c3ccccc23)NC1=O', 11.8);
